method_description: Growth inhibition of human SF295 cells at 10 uM after 48 hrs by SRB assay
Assay type: functional
details: SF-295, 48 h, read-out: GI
List of inhibition of growth at 10 µM values.
Give the number; % is assumed, so skip it.

If you can, please state the reported inhibition of growth at 10 µM value of Fc1ccc(Nc2nccc(Nc3ccc4[nH]ncc4c3)n2)cc1 .
11

If you can, please state the reported inhibition of growth at 10 µM value of NS(=O)(=O)c1ccc(Nc2nccc(Nc3ccc4[nH]ncc4c3)n2)cc1 .
2

If you can, please state the reported inhibition of growth at 10 µM value of COc1ccc(Nc2nccc(Nc3ccc4[nH]ncc4c3)n2)cc1 .
52

If you can, please state the reported inhibition of growth at 10 µM value of Clc1ccc(Nc2nccc(Nc3ccc4[nH]ncc4c3)n2)cc1 .
29

If you can, please state the reported inhibition of growth at 10 µM value of COc1cccc(Nc2nccc(Nc3ccc4[nH]ncc4c3)n2)c1 .
84

====

List of IC50 values.
tgt: UniProtKB P35968
Sequence (P35968 whole entry): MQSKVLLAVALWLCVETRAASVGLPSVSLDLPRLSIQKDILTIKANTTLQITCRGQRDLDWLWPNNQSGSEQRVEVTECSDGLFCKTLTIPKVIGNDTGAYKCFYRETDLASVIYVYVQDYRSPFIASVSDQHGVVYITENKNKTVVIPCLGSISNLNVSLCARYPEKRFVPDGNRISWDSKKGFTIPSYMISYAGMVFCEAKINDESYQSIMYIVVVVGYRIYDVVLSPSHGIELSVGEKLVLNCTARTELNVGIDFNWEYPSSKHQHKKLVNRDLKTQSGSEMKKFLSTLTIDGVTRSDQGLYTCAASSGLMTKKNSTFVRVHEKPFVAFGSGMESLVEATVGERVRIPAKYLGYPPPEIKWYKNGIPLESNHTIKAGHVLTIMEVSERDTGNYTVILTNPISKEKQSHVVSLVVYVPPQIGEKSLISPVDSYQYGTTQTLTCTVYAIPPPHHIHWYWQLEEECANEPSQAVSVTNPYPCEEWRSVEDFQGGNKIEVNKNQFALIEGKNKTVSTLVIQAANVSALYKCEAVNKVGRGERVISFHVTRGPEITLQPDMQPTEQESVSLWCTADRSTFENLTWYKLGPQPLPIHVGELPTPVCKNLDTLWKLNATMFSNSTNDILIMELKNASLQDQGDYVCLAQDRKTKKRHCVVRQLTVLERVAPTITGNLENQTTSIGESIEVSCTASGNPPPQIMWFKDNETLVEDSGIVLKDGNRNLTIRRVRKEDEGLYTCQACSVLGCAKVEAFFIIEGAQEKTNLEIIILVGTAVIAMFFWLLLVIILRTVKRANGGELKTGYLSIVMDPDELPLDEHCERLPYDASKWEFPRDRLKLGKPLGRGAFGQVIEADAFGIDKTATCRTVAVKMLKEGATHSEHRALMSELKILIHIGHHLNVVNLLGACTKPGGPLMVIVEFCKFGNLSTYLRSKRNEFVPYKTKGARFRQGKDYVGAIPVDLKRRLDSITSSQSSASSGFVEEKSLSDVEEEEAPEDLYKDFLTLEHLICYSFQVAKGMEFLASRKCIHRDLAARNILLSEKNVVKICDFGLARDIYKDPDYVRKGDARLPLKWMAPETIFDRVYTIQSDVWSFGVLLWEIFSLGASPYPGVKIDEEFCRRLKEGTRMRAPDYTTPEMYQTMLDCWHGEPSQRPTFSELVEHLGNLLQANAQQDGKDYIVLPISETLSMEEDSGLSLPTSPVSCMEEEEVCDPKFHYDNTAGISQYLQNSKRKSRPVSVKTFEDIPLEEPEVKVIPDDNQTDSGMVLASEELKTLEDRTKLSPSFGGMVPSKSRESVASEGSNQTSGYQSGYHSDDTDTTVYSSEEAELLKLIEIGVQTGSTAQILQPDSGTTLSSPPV
method_description: Inhibition of VEGFR-2 (unknown origin) after 40 mins by Kinase-GloPlus luminescence assay
Give the number; nM is assumed, so skip it.

# molecule, IC50 / nM
records = [
    ("COc1ccc(Nc2nccc(Nc3ccc4[nH]ncc4c3)n2)cc1", 117),
]

From here, focus on the item given below.
If you can, please state the reported IC50 value of COc1cccc(Nc2nccc(Nc3ccc4[nH]ncc4c3)n2)c1 .
81

====

List of inhibition of growth at 10 µM values.
method_description: Growth inhibition of human OVCAR8 cells at 10 uM after 48 hrs by SRB assay
Format: functional
details: OVCAR-8, 48 h, read-out: GI
Give the number; % is assumed, so skip it.

Take a look at these entries with their results.
# molecule, attribute_measured, measure_unit, recorded_value
records = [
    ("Clc1ccc(Nc2nccc(Nc3ccc4[nH]ncc4c3)n2)cc1", "inhibition of growth at 10 µM", "%", 78),
    ("COc1ccc(Nc2nccc(Nc3ccc4[nH]ncc4c3)n2)cc1", "inhibition of growth at 10 µM", "%", 91),
    ("Fc1ccc(Nc2nccc(Nc3ccc4[nH]ncc4c3)n2)cc1", "inhibition of growth at 10 µM", "%", 59),
    ("NS(=O)(=O)c1ccc(Nc2nccc(Nc3ccc4[nH]ncc4c3)n2)cc1", "inhibition of growth at 10 µM", "%", 18),
]

If you can, please state the reported inhibition of growth at 10 µM value of COc1cccc(Nc2nccc(Nc3ccc4[nH]ncc4c3)n2)c1 .
181

====

System: SK-MEL-28
method_description: Growth inhibition of human SK-MEL-28 cells at 10 uM after 48 hrs by SRB assay
Format: functional
details: SK-MEL-28, 48 h, read-out: GI
Kind request: treat 20% as inclusive, so inhibition of growth at 10 µM at 20% or higher is t, anything lower is f.

# molecule, assigned_class
data = [
    ("COc1ccc(Nc2nccc(Nc3ccc4[nH]ncc4c3)n2)cc1", "t"),
    ("COc1cccc(Nc2nccc(Nc3ccc4[nH]ncc4c3)n2)c1", "t"),
    ("Fc1ccc(Nc2nccc(Nc3ccc4[nH]ncc4c3)n2)cc1", "f"),
]

For the next question, use this molecule.
Please tell me: is the molecule NS(=O)(=O)c1ccc(Nc2nccc(Nc3ccc4[nH]ncc4c3)n2)cc1 at or over 20% in terms of inhibition of growth at 10 µM?
f

====

method_description: Cytotoxicity against human PC3 cells after 72 hrs by SRB assay
details: PC-3, 72 h
attribute_measured: IC50 (µM)
Give the number; µM is assumed, so skip it.

If you can, please state the reported IC50 value of NS(=O)(=O)c1ccc(Nc2nccc(Nc3ccc4[nH]ncc4c3)n2)cc1 .
33.8

====

List of inhibition of growth at 10 µM values.
Tested on: MDA-MB-231
method_description: Growth inhibition of human MDA-MB-231 cells at 10 uM after 48 hrs by SRB assay
Type: functional
details: MDA-MB-231, 48 h, read-out: GI
Give the number; % is assumed, so skip it.

# molecule, inhibition of growth at 10 µM, %
records = [
    ("COc1cccc(Nc2nccc(Nc3ccc4[nH]ncc4c3)n2)c1", 85),
    ("Clc1ccc(Nc2nccc(Nc3ccc4[nH]ncc4c3)n2)cc1", 31),
    ("COc1ccc(Nc2nccc(Nc3ccc4[nH]ncc4c3)n2)cc1", 51),
    ("Fc1ccc(Nc2nccc(Nc3ccc4[nH]ncc4c3)n2)cc1", 21),
]

From here, focus on the item given below.
If you can, please state the reported inhibition of growth at 10 µM value of NS(=O)(=O)c1ccc(Nc2nccc(Nc3ccc4[nH]ncc4c3)n2)cc1 .
14

====

method_description: Growth inhibition of human OVCAR3 cells at 10 uM after 48 hrs by SRB assay
Format: functional
details: OVCAR-3, 48 h, read-out: GI
Kind request: treat 10% as inclusive, so inhibition of growth at 10 µM at 10% or higher is MET, anything lower is NOT MET.

Examples with answers:
# molecule, assigned_class
records = [
    ("Clc1ccc(Nc2nccc(Nc3ccc4[nH]ncc4c3)n2)cc1", "MET"),
    ("NS(=O)(=O)c1ccc(Nc2nccc(Nc3ccc4[nH]ncc4c3)n2)cc1", "NOT MET"),
    ("Fc1ccc(Nc2nccc(Nc3ccc4[nH]ncc4c3)n2)cc1", "MET"),
    ("COc1ccc(Nc2nccc(Nc3ccc4[nH]ncc4c3)n2)cc1", "MET"),
]

For the next question, use this molecule.
Please tell me: is the molecule COc1cccc(Nc2nccc(Nc3ccc4[nH]ncc4c3)n2)c1 at or over 10% in terms of inhibition of growth at 10 µM?
MET

====

Test system: K562
method_description: Growth inhibition of human K562 cells at 10 uM after 48 hrs by SRB assay
Type: functional
details: K562, 48 h, read-out: GI
attribute_measured: inhibition of growth at 10 µM (%)
Give the number; % is assumed, so skip it.

Take a look at these entries with their results.
# molecule, inhibition of growth at 10 µM (%)
rows = [
    ("COc1ccc(Nc2nccc(Nc3ccc4[nH]ncc4c3)n2)cc1", 95),
    ("Clc1ccc(Nc2nccc(Nc3ccc4[nH]ncc4c3)n2)cc1", 108),
]

If you can, please state the reported inhibition of growth at 10 µM value of Fc1ccc(Nc2nccc(Nc3ccc4[nH]ncc4c3)n2)cc1 .
61

If you can, please state the reported inhibition of growth at 10 µM value of NS(=O)(=O)c1ccc(Nc2nccc(Nc3ccc4[nH]ncc4c3)n2)cc1 .
25

If you can, please state the reported inhibition of growth at 10 µM value of COc1cccc(Nc2nccc(Nc3ccc4[nH]ncc4c3)n2)c1 .
110

====

method_description: Growth inhibition of human HCC2998 cells at 10 uM after 48 hrs by SRB assay
Format: functional
details: HCC 2998, 48 h, read-out: GI
attribute_measured: inhibition of growth at 10 µM

# molecule, inhibition of growth at 10 µM
rows = [
    ("Fc1ccc(Nc2nccc(Nc3ccc4[nH]ncc4c3)n2)cc1", "1%"),
    ("COc1ccc(Nc2nccc(Nc3ccc4[nH]ncc4c3)n2)cc1", "37%"),
    ("Clc1ccc(Nc2nccc(Nc3ccc4[nH]ncc4c3)n2)cc1", "6%"),
]

If you can, please state the reported inhibition of growth at 10 µM value of COc1cccc(Nc2nccc(Nc3ccc4[nH]ncc4c3)n2)c1 .
107%

If you can, please state the reported inhibition of growth at 10 µM value of NS(=O)(=O)c1ccc(Nc2nccc(Nc3ccc4[nH]ncc4c3)n2)cc1 .
-18%

====

List of inhibition of growth at 10 µM values.
method_description: Growth inhibition of human HOP92 cells at 10 uM after 48 hrs by SRB assay
Assay type: functional
details: HOP-92, 48 h, read-out: GI
Show the value, then the unit it is measured in.

Take a look at these entries with their results.
# molecule, inhibition of growth at 10 µM
measured = [
    ("Fc1ccc(Nc2nccc(Nc3ccc4[nH]ncc4c3)n2)cc1", "81%"),
    ("Clc1ccc(Nc2nccc(Nc3ccc4[nH]ncc4c3)n2)cc1", "101%"),
    ("NS(=O)(=O)c1ccc(Nc2nccc(Nc3ccc4[nH]ncc4c3)n2)cc1", "47%"),
    ("COc1ccc(Nc2nccc(Nc3ccc4[nH]ncc4c3)n2)cc1", "101%"),
]

If you can, please state the reported inhibition of growth at 10 µM value of COc1cccc(Nc2nccc(Nc3ccc4[nH]ncc4c3)n2)c1 .
111%

====

List of inhibition of growth at 10 µM values.
method_description: Growth inhibition of human SKOV3 cells at 10 uM after 48 hrs by SRB assay
Assay type: functional
details: SK-OV-3, 48 h, read-out: GI
Give the number; % is assumed, so skip it.

# molecule, inhibition of growth at 10 µM, %
rows = [
    ("Clc1ccc(Nc2nccc(Nc3ccc4[nH]ncc4c3)n2)cc1", 12),
    ("COc1cccc(Nc2nccc(Nc3ccc4[nH]ncc4c3)n2)c1", 85),
]

If you can, please state the reported inhibition of growth at 10 µM value of NS(=O)(=O)c1ccc(Nc2nccc(Nc3ccc4[nH]ncc4c3)n2)cc1 .
-4

If you can, please state the reported inhibition of growth at 10 µM value of COc1ccc(Nc2nccc(Nc3ccc4[nH]ncc4c3)n2)cc1 .
48

If you can, please state the reported inhibition of growth at 10 µM value of Fc1ccc(Nc2nccc(Nc3ccc4[nH]ncc4c3)n2)cc1 .
24
